# Test system: A549
# Procedure Details: Cytotoxicity against human A549 cells assessed as cell survival after 96 hrs by sulforhodamine B assay
# Format: functional, cell-based
# Test Settings: A549, 96 h
Endpoint Label: EC50 (µM)

{"Molecule": "CC1(C)CC[C@]2(C(=O)OCCC3OCCCO3)CC[C@]3(C)C(=CC[C@@H]4[C@@]5(C)CC[C@H](O)[C@@](C)(CO)[C@@H]5CC[C@]43C)[C@@H]2C1", "Tested On": "A549", "Result": 13.1}
{"Molecule": "CC1(C)CC[C@]2(C(=O)OCc3c(Cl)cccc3Cl)CC[C@]3(C)C(=CC[C@@H]4[C@@]5(C)CC[C@H](O)[C@@](C)(CO)[C@@H]5CC[C@]43C)[C@@H]2C1", "Tested On": "A549", "Result": 12.9}
{"Molecule": "CC1(C)CC[C@]2(C(=O)OCc3ccccc3F)CC[C@]3(C)C(=CC[C@@H]4[C@@]5(C)CC[C@H](O)[C@@](C)(CO)[C@@H]5CC[C@]43C)[C@@H]2C1", "Tested On": "A549", "Result": 13.2}
{"Molecule": "CC1(C)CC[C@]2(C(=O)OCc3ccc(F)cc3F)CC[C@]3(C)C(=CC[C@@H]4[C@@]5(C)CC[C@H](O)[C@@](C)(CO)[C@@H]5CC[C@]43C)[C@@H]2C1", "Tested On": "A549", "Result": 11.4}
{"Molecule": "C#CCNC(=O)[C@]12CCC(C)(C)C[C@H]1C1=CC[C@@H]3[C@@]4(C)CC[C@H](O)[C@@](C)(CO)[C@@H]4CC[C@@]3(C)[C@]1(C)CC2", "Tested On": "A549", "Result": 16.8}
{"Molecule": "CC1(C)CC[C@]2(C(=O)OCc3ccccc3Cl)CC[C@]3(C)C(=CC[C@@H]4[C@@]5(C)CC[C@H](O)[C@@](C)(CO)[C@@H]5CC[C@]43C)[C@@H]2C1", "Tested On": "A549", "Result": 13.6}
{"Molecule": "CC1(C)CC[C@]2(C(=O)OCc3ccccc3Br)CC[C@]3(C)C(=CC[C@@H]4[C@@]5(C)CC[C@H](O)[C@@](C)(CO)[C@@H]5CC[C@]43C)[C@@H]2C1", "Tested On": "A549", "Result": 13.2}
{"Molecule": "CC1(C)CC[C@]2(C(=O)OCc3ccccc3)CC[C@]3(C)C(=CC[C@@H]4[C@@]5(C)CC[C@H](O)[C@@](C)(CO)[C@@H]5CC[C@]43C)[C@@H]2C1", "Tested On": "A549", "Result": 7}
{"Molecule": "CC1(C)CC[C@]2(C(=O)OCc3ccccc3[N+](=O)[O-])CC[C@]3(C)C(=CC[C@@H]4[C@@]5(C)CC[C@H](O)[C@@](C)(CO)[C@@H]5CC[C@]43C)[C@@H]2C1", "Tested On": "A549", "Result": 10.9}
{"Molecule": "CC1(C)CC[C@]2(C(=O)OCc3cccc([N+](=O)[O-])c3)CC[C@]3(C)C(=CC[C@@H]4[C@@]5(C)CC[C@H](O)[C@@](C)(CO)[C@@H]5CC[C@]43C)[C@@H]2C1", "Tested On": "A549", "Result": 8.1}
{"Molecule": "C#CCOC(=O)[C@]12CCC(C)(C)C[C@H]1C1=CC[C@@H]3[C@@]4(C)CC[C@H](O)[C@@](C)(CO)[C@@H]4CC[C@@]3(C)[C@]1(C)CC2", "Tested On": "A549", "Result": 15.9}
